Data origin, for the record: ChEMBL document CHEMBL1156244

Measured IC50 by item
target: Gamma-secretase; assay: Displacement of [3H]5-chloro-N-((2S,3R)-5,5,5-trifluoro-1-hydroxy-3-methylpentan-2-yl)thiophene-2-sulfonamide from gamma secretase in human SH-SY5Y cells by competitive binding assay; assay type: cell-based

1. CC1(C)[C@H]2CC[C@](C)(C2)[C@H]1NS(=O)(=O)c1ccc(F)cc1
966 nM
2. CC(C)C[C@H](NC(=O)[C@H](Cc1ccccc1)C[C@@H](O)[C@H](Cc1ccccc1)NC(=O)OC(C)(C)C)C(=O)N[C@@H](Cc1ccccc1)C(N)=O
22 nM
3. C[C@H](NC(=O)Cc1cc(F)cc(F)c1)C(=O)N[C@H]1N=C(c2ccccc2)c2ccccc2N(C)C1=O
1 nM

Input CC(C)[C@H](O)C(=O)N[C@@H](C)C(=O)N[C@@H]1C(=O)N(C)CCc2ccccc21 , output reported IC50.
38 nM
